Test system: 994946-033-R-J1-PDC complex spheroid viability
method: Anticancer human tumor 994946-033-R-J1-PDC patient-derived melanoma cell line growth inhibition [POLQ]
settings: curve of first compound; second compound 0.316 µM
pIC50: −log10 of the molar value.
experimental endpoint: pIC50

compound: CC1COCCN1c1cc(-c2ccnn2C)c2ccnc(-c3ccn[nH]3)c2n1 (stereo not drawn) + Nc1ccc(C#CCN(C(=O)Cc2ncc(C(F)(F)F)cc2C(F)(F)F)c2ccc(F)cc2)nn1
target or test system: 994946-033-R-J1-PDC complex spheroid viability
bound operator: =
measured result: 7.14
--
compound: C=CCn1c(=O)c2cnc(Nc3ccc(N4CCN(C)CC4)cc3)nc2n1-c1cccc(C(C)(C)O)n1 + Cc1cccc(N(C)C(=O)C2C(O)CCN2c2nc(C)cc(C(F)(F)F)c2C#N)c1
target or test system: 994946-033-R-J1-PDC complex spheroid viability
bound operator: =
measured result: 6.31
--
compound: CC1COCCN1c1cc(C2(O)CC3CCC(C2)O3)c2cnn(-c3ccn[nH]3)c2n1 (stereo not drawn) + Nc1ccc(C#CCN(C(=O)Cc2ncc(C(F)(F)F)cc2C(F)(F)F)c2ccc(F)cc2)nn1
target or test system: 994946-033-R-J1-PDC complex spheroid viability
bound operator: >
measured result: 7.50

----------
Tested on: 994946-033-R-J1-PDC complex spheroid viability
method: Anticancer human tumor 994946-033-R-J1-PDC cell line growth inhibition [POLQ];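 also: spheroids exposed to drugs for 7 days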;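 as to viability, T/C: 100% = DMSO vehicle treated spheroids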
settings: second compound 10 µM; first compound 0.00316 µM; stronger effect = lower value

compound: COc1cccc(OCCCN)c1-c1cc(Nc2cnc(C#N)cn2)n[nH]1 + Cc1cccc(N(C)C(=O)C2C(O)CCN2c2nc(C)cc(C(F)(F)F)c2C#N)c1
value units: %
viability, T/C: 68

compound: C=CCn1c(=O)c2cnc(Nc3ccc(N4CCN(C)CC4)cc3)nc2n1-c1cccc(C(C)(C)O)n1 + Cc1cccc(N(C)C(=O)C2C(O)CCN2c2nc(C)cc(C(F)(F)F)c2C#N)c1
value units: %
viability, T/C: 123

compound: C=CCn1c(=O)c2cnc(Nc3ccc(N4CCN(C)CC4)cc3)nc2n1-c1cccc(C(C)(C)O)n1 + COC1C(OC(N)=O)C(O)C(Oc2ccc3c(O)c(NC(=O)c4ccc(O)c(CC=C(C)C)c4)c(=O)oc3c2C)OC1(C)C
value units: %
viability, T/C: 101

compound: COc1cccc(OCCCN)c1-c1cc(Nc2cnc(C#N)cn2)n[nH]1 + Nc1ccc(C#CCN(C(=O)Cc2ncc(C(F)(F)F)cc2C(F)(F)F)c2ccc(F)cc2)nn1
value units: %
viability, T/C: 100

compound: CCc1c2c(nc3ccc(O)cc13)-c1cc3c(c(=O)n1C2)COC(=O)[C@]3(O)CC + COC1C(OC(N)=O)C(O)C(Oc2ccc3c(O)c(NC(=O)c4ccc(O)c(CC=C(C)C)c4)c(=O)oc3c2C)OC1(C)C
value units: %
viability, T/C: 16.8

----------
System: 994946-033-R-J1-PDC complex spheroid viability
method: Anticancer human tumor 994946-033-R-J1-PDC cell line growth inhibition [POLQ];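 also: spheroids exposed to drugs for 7 days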;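 as to viability, T/C: 100% = DMSO vehicle treated spheroids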
settings: second compound 10 µM; first compound 3.16 µM; stronger effect = lower value
Protocol: Multicellular complex tumor spheroid response to Polymerase (POL) inhibitors (novobiocin, ART-558, RP6685) in combination with a variety of drugs and investigational agents in selected tumor cell lines The POL inhibitors (novobiocin, ART-558, and RP6685) were evaluated both individually and in combination with standard of care and investigational anticancer small molecules within a complex spheroid model of solid tumors. . […]

compound: CC1COCCN1c1cc(C2(O)CC3CCC(C2)O3)c2cnn(-c3ccn[nH]3)c2n1 (stereo unspecified) + COC1C(OC(N)=O)C(O)C(Oc2ccc3c(O)c(NC(=O)c4ccc(O)c(CC=C(C)C)c4)c(=O)oc3c2C)OC1(C)C
value units: %
viability, T/C: 15.3
--
compound: COc1cc(C2c3cc4c(cc3C(OC3OC5COC(C)OC5C(O)C3O)C3COC(=O)C23)OCO4)cc(OC)c1O (stereo unspecified) + COC1C(OC(N)=O)C(O)C(Oc2ccc3c(O)c(NC(=O)c4ccc(O)c(CC=C(C)C)c4)c(=O)oc3c2C)OC1(C)C
value units: %
viability, T/C: 14.9
--
compound: C=CC(=O)N1CCN(c2nc(=O)n(-c3c(C)ccnc3C(C)C)c3nc(-c4c(O)cccc4F)c(F)cc23)C(C)C1 (stereo unspecified) + COC1C(OC(N)=O)C(O)C(Oc2ccc3c(O)c(NC(=O)c4ccc(O)c(CC=C(C)C)c4)c(=O)oc3c2C)OC1(C)C
value units: %
viability, T/C: 86.9
--
compound: O=C(Nc1ccc(O)c(NS(=O)(=O)c2ccc(F)cc2)c1)c1ccc(-c2ccccc2)cc1 + COC1C(OC(N)=O)C(O)C(Oc2ccc3c(O)c(NC(=O)c4ccc(O)c(CC=C(C)C)c4)c(=O)oc3c2C)OC1(C)C
value units: %
viability, T/C: 60.1
--
compound: C#Cc1c(F)ccc2cc(O)cc(-c3ncc4c(N5CC6CCC(C5)N6)nc(OCC56CCCN5CC(F)C6)nc4c3F)c12 (stereo unspecified) + COC1C(OC(N)=O)C(O)C(Oc2ccc3c(O)c(NC(=O)c4ccc(O)c(CC=C(C)C)c4)c(=O)oc3c2C)OC1(C)C
value units: %
viability, T/C: 86.3
--
compound: C=CC(=O)N1CCN(c2nc(=O)n(-c3c(C)ccnc3C(C)C)c3nc(-c4c(O)cccc4F)c(F)cc23)C(C)C1 (stereo unspecified) + Nc1ccc(C#CCN(C(=O)Cc2ncc(C(F)(F)F)cc2C(F)(F)F)c2ccc(F)cc2)nn1
value units: %
viability, T/C: 120
